Molecular target: Retinoic acid receptor RXR-alpha (Homo sapiens)
Experiment: qHTS assay to identify small molecule agonists of the RXR signaling pathway (AID 1159527); also: % is scaled to controls: 0 for no effect and ±100 for the full control effect; nearly all actives have a fitted effect of over 35% in size
Details: HEK293T RXRa-UAS-bla, beta-lactamase ratio, 16 h; series mostly up to 76.8 µM
Results filed as inconclusive are left out. The source made the active and inactive calls. Calls follow the shape of the full dose curve.

- compound: "Nc1cccc(S(=O)(=O)c2cccc(N)c2)c1"
  activation: "inactive"
- compound: "CC(C)O.CC(C)O.CCOC(=O)/C=C(\\C)O.CCOC(=O)/C=C(\\C)O.[Ti]"
  activation: "inactive"
- compound: "O=C1OC(=O)C2C3C=CC(C3)C12 (configuration not stated)"
  activation: "inactive"
- compound: "COc1cc2nc(N(C)CCCNC(=O)C3CCCO3)nc(N)c2cc1OC (configuration not stated)"
  activation: "inactive"
- compound: "CNC(=O)CN(CCN(CCN(CC(=O)[O-])CC(=O)NC)CC(=O)[O-])CC(=O)[O-].O.[Gd+3]"
  activation: "inactive"
- compound: "NCC(=O)CCC(=O)O"
  activation: "inactive"
- compound: "O=C1CCC(=O)O1"
  activation: "inactive"
- compound: "C/C(=C(\\CCOP(=O)(O)O)SC(=O)c1ccccc1)N(C=O)Cc1cnc(C)nc1N"
  activation: "7.58% [at 6.98 µM] (inactive)"
- compound: "O=C(Nc1ccc(S(=O)(=O)N2CCOCC2)cc1)c1cc(Cl)ccc1NS(=O)(=O)c1ccc(Cl)s1"
  activation: "inactive"
- compound: "CCN(CC)c1ccc(C(=C2C=CC(=[N+](CC)CC)C=C2)c2cc(S(=O)(=O)O)ccc2S(=O)(=O)[O-])cc1"
  activation: "inactive"
- compound: "CCOc1ccc(N)c([N+](=O)[O-])c1"
  activation: "inactive"
- compound: "CCOC(=O)C(F)(F)F"
  activation: "inactive"
- compound: "CCC(C)(C)CC"
  activation: "inactive"
- compound: "CC(=O)NO"
  activation: "inactive"
- compound: "CCCCO"
  activation: "inactive"
- compound: "Cc1[nH]c(C)c(Cl)c(=O)c1Cl"
  activation: "5.66% [at 15.8 µM] (inactive)"
- compound: "COC(C)OC"
  activation: "inactive"
- compound: "C=C(C)C(=O)OCCOCC"
  activation: "inactive"
- compound: "C#CCN(C)CCCOc1ccc(Cl)cc1Cl"
  activation: "inactive"
- compound: "COc1ccnc(CS(=O)c2nc3ccc(OC(F)F)cc3[nH]2)c1OC (configuration not stated)"
  activation: "inactive"
- compound: "CC1(c2ccccc2)OC(C(=O)O)=CC1=O (configuration not stated)"
  activation: "inactive"
- compound: "C=CCOc1ccccc1OCC(O)CNC(C)C (configuration not stated)"
  activation: "inactive"
- compound: "O=C(O)CNCC(=O)O"
  activation: "1.94% [at 6.98 µM] (inactive)"
- compound: "OCCN1CCN(CCCN2c3ccccc3C=Cc3ccccc32)CC1"
  activation: "inactive"
- compound: "CCCC(=O)Nc1ccc(O)c(C(C)=O)c1"
  activation: "inactive"
- compound: "COCCCN1CCC(NC(=O)c2cc(Cl)c(N)c3c2OCC3)CC1"
  activation: "inactive"
- compound: "CN(C)c1ccc(/C=C/c2ccc([N+](=O)[O-])cc2)cc1"
  activation: "-7.68% [at 6.98 µM] (inactive)"

Sourced from PubChem BioAssay (Tox21)
